- measured-target: neurotensin receptor 1 (NTR1) (Homo sapiens, UniProt P30989)
- Sequence (P30989 whole entry): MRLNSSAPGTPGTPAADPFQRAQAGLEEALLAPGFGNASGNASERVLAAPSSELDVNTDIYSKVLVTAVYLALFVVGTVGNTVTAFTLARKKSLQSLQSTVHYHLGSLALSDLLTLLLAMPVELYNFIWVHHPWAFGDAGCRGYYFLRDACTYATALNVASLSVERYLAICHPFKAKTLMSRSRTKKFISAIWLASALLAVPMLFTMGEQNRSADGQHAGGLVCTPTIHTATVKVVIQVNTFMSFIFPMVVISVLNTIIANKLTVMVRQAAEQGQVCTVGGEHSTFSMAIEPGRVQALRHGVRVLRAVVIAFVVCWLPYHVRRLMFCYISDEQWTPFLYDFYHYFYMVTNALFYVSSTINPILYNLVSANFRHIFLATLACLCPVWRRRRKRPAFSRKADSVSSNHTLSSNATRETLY
- run-description: […]-NT radioligand binding to NTR1-U2OS membranes
measurement-type: EC50 (µM)

• COc1cc2nc(C3CC3)nc(N3CCN(c4ccccc4OC)CC3)c2cc1OC [ML314] = 0.316
